target: Na+-dependent bile acid transport system (Oryctolagus cuniculus, UniProt Q28727); construct: brush-border membrane vesicles from the ileum of rabbits; from tissue; host or cells: terminal ileum of male New Zealand rabbits, brush-border membrane vesicles; experiment: Inhibition of Na+-dependent [3H]taurocholate absorption into brush-border membrane vesicles of the ileum; type: biochemical, rabbit
Sequence (Q28727 whole entry): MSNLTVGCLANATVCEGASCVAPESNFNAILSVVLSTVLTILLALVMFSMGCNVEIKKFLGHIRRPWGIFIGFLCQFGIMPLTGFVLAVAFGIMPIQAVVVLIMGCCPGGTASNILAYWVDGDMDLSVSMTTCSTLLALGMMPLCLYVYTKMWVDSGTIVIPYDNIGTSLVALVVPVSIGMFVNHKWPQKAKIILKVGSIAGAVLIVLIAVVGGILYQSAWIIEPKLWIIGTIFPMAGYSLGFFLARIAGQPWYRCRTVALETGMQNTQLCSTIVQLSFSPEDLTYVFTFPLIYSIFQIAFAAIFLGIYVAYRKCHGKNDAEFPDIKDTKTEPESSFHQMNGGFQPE
quantity_measured: IC25 (µM)

[[record]]
smiles_code = "CC(C)c1nc(-c2ccccc2)cc(-c2ccc(F)cc2)c1/C=C/[C@@H](O)C[C@@H](O)CC(=O)NCCCO[C@H]1CC[C@@]2(C)[C@@H](C1)C[C@@H](O)[C@@H]1[C@@H]2C[C@H](O)[C@]2(C)[C@@H]([C@H](C)CCC(=O)O)CC[C@@H]12"
unit_symbol = "µM"
val = 14

[[record]]
smiles_code = "CC(C)c1cc(-c2ccc(F)cc2)c(OC[C@@H](O)C[C@@H](O)CC(=O)NCCO[C@H]2CC[C@@]3(C)[C@@H](C2)C[C@@H](O)[C@@H]2[C@@H]3C[C@H](O)[C@]3(C)[C@@H]([C@H](C)CCC(=O)O)CC[C@@H]23)c(C(C)C)c1"
unit_symbol = "µM"
val = 15

[[record]]
smiles_code = "C[C@H](CCC(=O)O)[C@H]1CC[C@H]2[C@@H]3[C@H](O)C[C@@H]4C[C@@H](OCCNC(=O)[C@@H](C)NC(=O)[C@@H](C)N)CC[C@]4(C)[C@H]3C[C@H](O)[C@]12C"
unit_symbol = "µM"
val = 30

[[record]]
smiles_code = "CC(C)c1cc(-c2ccc(F)cc2)c(OC[C@@H](O)C[C@@H](O)CC(=O)NCCO[C@H]2CC[C@@]3(C)[C@@H](C2)C[C@@H](O)[C@@H]2[C@@H]3C[C@H](O)[C@]3(C)[C@@H]([C@H](C)CCC(=O)NCC(=O)O)CC[C@@H]23)c(C(C)C)c1"
unit_symbol = "µM"
val = 19

